In this section we review reported IC50 values for a set of compounds.
System: NCI-H128
ASSAY TEXT: SANGER: Inhibition of human NCI-H128 cell growth in a cell viability assay.
Type: functional, cell-based

Here's what some known entries look like.
COMPOUND: COc1cc(N2CCN(C)CC2)ccc1Nc1ncc2c(n1)N(C)c1ccccc1C(=O)N2C
IC50: > 8 µM

COMPOUND: COc1cc(-c2nn([C@H]3CC[C@H](N4CCN(C(C)=O)CC4)CC3)c3ncnc(N)c23)ccc1NC(=O)c1cc2ccccc2n1C
IC50: > 5.12 µM

COMPOUND: OCCCNc1cc(-c2ccnc(Nc3cccc(Cl)c3)n2)ccn1
IC50: > 0.256 µM

COMPOUND: Cc1ccc(-c2c(C(=O)CCl)n(CCCO)c3ncnc(N)c23)cc1
IC50: 3.1 µM

Below: the item to evaluate.
IN: Any idea what IC50 came out for C#Cc1cccc(Nc2ncnc3cc(OCCOC)c(OCCOC)cc23)c1 [ERLOTINIB] on NCI-H128?
OUT: > 2 µM

* * *

Test system: PANC-08-13
ASSAY TEXT: cells
Format: functional, cell-based, Homo sapiens
ASSAY CONDITIONS: Homo sapiens, PANC-08-13
Description: SANGER: Inhibition of human PANC-08-13 cell growth in a cell viability assay.
MEASUREMENT NAME: IC50

Here's what some known entries look like.
COMPOUND: CC(C)CCN1c2nc(Nc3cc(F)c(O)c(F)c3)ncc2N(C)C(=O)C1C (stereo not drawn)
REPORTED VALUE: > 5 µM
--
COMPOUND: CC1(C)CNc2cc(NC(=O)c3cccnc3NCc3ccncc3)ccc21
REPORTED VALUE: > 2 µM
--
COMPOUND: COc1cc2c(Nc3ccc(NC(=O)c4ccccc4)cc3)ncnc2cc1OCCCN1CCOCC1
REPORTED VALUE: > 4 µM
--
COMPOUND: Nc1cccc2c1CN(C1CCC(=O)NC1=O)C2=O (stereo not drawn) [LENALIDOMIDE]
REPORTED VALUE: > 5 µM
--
COMPOUND: CCC/C=C/C=C/C(=O)O[C@H]1/C(=C/C(=O)OC)C[C@H]2C[C@H]([C@@H](C)O)OC(=O)C[C@H](O)C[C@@H]3C[C@H](OC(C)=O)C(C)(C)[C@](O)(C[C@@H]4C/C(=C/C(=O)OC)C[C@H](/C=C/C(C)(C)[C@]1(O)O2)O4)O3
REPORTED VALUE: > 0.008 µM

IN: For `Cc1cc([N+](=O)[O-])ccc1NS(=O)(=O)c1cc(Cl)ccc1Cl` , what is its reported IC50?
OUT: > 32 µM

IN: For `CN(C)C(=N)NC(=N)N` , what is its reported IC50?
OUT: > 20000 µM

IN: For `Oc1ccc2ccccc2c1SSc1c(O)ccc2ccccc12` , what is its reported IC50?
OUT: > 32 µM

* * *

System: MHH-NB-11;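 further: growth inhibition of human MHH-NB-11 cells, read out by a cell viability assay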
ASSAY TEXT: cells
Type: functional, cell-based, Homo sapiens
ASSAY CONDITIONS: mhh-nb-11
Description: SANGER: Inhibition of human MHH-NB-11 cell growth in a cell viability assay.
MEASUREMENT NAME: pIC50
Value format note: pIC50 is -log10 of concentration (mol/L); just state the number.

IN: For `BLEOMYCIN` , what is its reported pIC50?
OUT: 5.70

* * *

System: AU565
ASSAY TEXT: cells
Format: functional, cell-based, Homo sapiens
ASSAY CONDITIONS: Homo sapiens, AU565
Description: SANGER: Inhibition of human AU565 cell growth in a cell viability assay.
In this section we review reported pIC50 values for a set of compounds.
Value format note: pIC50 is -log10 of concentration (mol/L); just state the number.

MOLECULE: Cc1cc([N+](=O)[O-])ccc1NS(=O)(=O)c1cc(Cl)ccc1Cl
TARGET OR TEST SYSTEM: AU565;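 further: cell viability assay measuring growth inhibition of human AU565 cells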
pIC50: 5.63

Below: the item to evaluate.
IN: Any idea what pIC50 came out for `COc1cccc2c1C(=O)c1c(O)c3c(c(O)c1C2=O)C[C@@](O)(C(=O)CO)C[C@@H]3O[C@H]1C[C@H](N)[C@H](O)[C@H](C)O1` on AU565?
OUT: 6.98

Source of measurements: ChEMBL document CHEMBL1201861
